Cli (mouse, ml/min/g) listing for selected compounds.
# PROTOCOL TEXT: Mouse liver microsomal intrinsic clearance
# Format: in vitro ADME
# TEST CONTEXT: supplementary csv; mouse

Known results for compounds:
INSERT INTO results (compound, obs_value) VALUES
  ('O=C(Nc1cccc(-c2cc3cc(-c4ccccc4)cnc3[nH]2)c1)N1CCCC1', '1.7 mL/min/g'),
  ('CC(=O)N1CCN(c2cnc3nc(-c4cc(NC(=O)N5CCCC5)ccc4F)ccn23)CC1', '1.5 mL/min/g'),
  ('O=C(Nc1ccc(F)c(-c2ccn3c(N4CCCCC4)cnc3n2)c1)N1CCCC1', '8.4 mL/min/g'),
  ('COc1ccc(-c2cn3cc(N4CCOCC4)cnc3n2)cc1NC(=O)N1CCCC1', '1.4 mL/min/g'),
  ('O=C(Nc1ccc(F)c(-c2ccn3c(N4CCNCC4)cnc3n2)c1)N1CCCC1', '<0.5 mL/min/g'),
  ('CN1CCOCC1c1cnc2nc(-c3cc(NC(=O)N4CCCC4)ccc3F)ccn12 (centres unmarked)', '3.8 mL/min/g'),
  ('O=C(Nc1cccc(-c2cn3cc(N4CCOCC4)cnc3n2)n1)N1CCCC1', '<0.5 mL/min/g');

// next item, Cli (mouse, ml/min/g) requested
Tell me the measured Cli (mouse, ml/min/g) of O=C(Nc1nccc(-c2cn3cc(N4CCOCC4)cnc3n2)n1)N1CCCC1 , please. <0.5 mL/min/g

====

Below, each entry is listed with its recorded log10(solubility at 4 h).
# PROTOCOL TEXT: FaSSIF (fasted state simulated intestinal fluid) solubility
# Assay type: physicochemical
# TEST CONTEXT: pH 6.5, Table 6
# Procedure: Intramacrophage L. donovani Assay. This assay was conducted as previously described, except for compound exposure time, which was 96 h instead of 72 h.4 Intrinsic Clearance. This assay was conducted as previously described.5 Aqueous Solubility. This assay was conducted as previously described.6 FaSSIF Solublity. This assay was conducted as previously described.5,7 In vivo Mouse Efficacy Studies. […]
For clarity, the numbers are log10 values of solubility at 4 h expressed in µM.

INSERT INTO results (compound, obs_value) VALUES
  ('CC1(C)CN(c2cnc3nc(-c4cc(NC(=O)N5CCCC5)ccc4F)ccn23)CCO1 [Compound 42]', 3.26),
  ('O=C(Nc1ccc(F)c(-c2ccn3c(N4CCNCC4)cnc3n2)c1)N1CCCC1 [Compound 35]', 0.70);

Next, consider the following compound.
Find the recorded log10(solubility at 4 h) belonging to CC1CN(c2cnc3nc(-c4cc(NC(=O)N5CCCC5)ccc4F)ccn23)CCO1 (stereo not drawn) [Compound 38] and report it. 2.40

====

# PROTOCOL TEXT: FaSSIF (fasted state simulated intestinal fluid) solubility
# Type: physicochemical
# TEST CONTEXT: pH 6.5, Table 2
METRIC: solubility at 4 h (µM)
// units = µM; emit number, no label

Record excerpt, results attached:
INSERT INTO results (mol_smiles, obs_value) VALUES
  ('O=C(Nc1cc(-c2cn3cc(N4CCOCC4)cnc3n2)ncn1)N1CCCC1', 2050),
  ('COc1ccc(NC(=O)N2CCCC2)cc1-c1cn2cc(N3CCOCC3)cnc2n1', 83),
  ('O=C(Nc1cnnc(-c2cn3cc(N4CCOCC4)cnc3n2)c1)N1CCCC1', 286);

Item O=C(Nc1cc(-c2cn3cc(N4CCOCC4)cnc3n2)ccc1F)N1CCCC1 has what recorded solubility at 4 h? 51

Another molecule: COc1ccc(-c2cn3cc(N4CCOCC4)cnc3n2)cc1NC(=O)N1CCCC1 265

Try the molecule O=C(Nc1cncc(-c2cn3cc(N4CCOCC4)cnc3n2)n1)N1CCCC1 213

Check O=C(Nc1cccc(-c2cn3cc(N4CCOCC4)cnc3n2)n1)N1CCCC1 too. 80
